Molecular target: recombinant full-length human prolyl endopeptidase (PREP) (Homo sapiens, UniProt P48147)
Construct: To recombinant full-length human prolyl endopeptidase (PREP, R&D-Systems, 4308-SE)
Experiment: Biochemical human prolyl endopeptidase (PREP) assay with fluorescently labelled substrate
Settings: substrate Z-Gly-Pro-AMC 50 μM, 32° C., 60 min; some as mean values from multiple independent determinations
measure: IC50 (nM)

O=C([C@@H]1CCCc2nn(CCc3ncc(C(F)(F)F)cc3Cl)c(=O)n21)N1CC(F)C1 [Example 518] : 15
CCn1nc(C(F)(F)F)cc1Cn1nc2n(c1=O)[C@H](C(=O)N1CCC(F)(F)C1)CCC2 [Example 362] : 1.35
O=C([C@@H]1CCCc2nn(Cc3cncc(Cl)c3)c(=O)n21)N1C[C@@H](F)[C@@H](F)C1 [Example 439] : 2.2

a = O=C(C1CCCc2nn(Cc3ccc(OC(F)(F)F)c(F)c3)c(=O)n21)N1CCCC1 (racemic) [Example 67]
b = O=C([C@@H]1CCCc2nn(Cc3cc(C(F)(F)F)ccn3)c(=O)n21)N1CCCC1 [Example 93]
Which value of IC50 is numerically greater: that of a or that of b ? Select an item and report its label.
a
(a: 8.7 nM, b: 6 nM)

---

Biological target: recombinant full-length human prolyl endopeptidase (PREP) (Homo sapiens)
Construct: To recombinant full-length human prolyl endopeptidase (PREP, R&D-Systems, 4308-SE)
Sequence (P48147 1-710): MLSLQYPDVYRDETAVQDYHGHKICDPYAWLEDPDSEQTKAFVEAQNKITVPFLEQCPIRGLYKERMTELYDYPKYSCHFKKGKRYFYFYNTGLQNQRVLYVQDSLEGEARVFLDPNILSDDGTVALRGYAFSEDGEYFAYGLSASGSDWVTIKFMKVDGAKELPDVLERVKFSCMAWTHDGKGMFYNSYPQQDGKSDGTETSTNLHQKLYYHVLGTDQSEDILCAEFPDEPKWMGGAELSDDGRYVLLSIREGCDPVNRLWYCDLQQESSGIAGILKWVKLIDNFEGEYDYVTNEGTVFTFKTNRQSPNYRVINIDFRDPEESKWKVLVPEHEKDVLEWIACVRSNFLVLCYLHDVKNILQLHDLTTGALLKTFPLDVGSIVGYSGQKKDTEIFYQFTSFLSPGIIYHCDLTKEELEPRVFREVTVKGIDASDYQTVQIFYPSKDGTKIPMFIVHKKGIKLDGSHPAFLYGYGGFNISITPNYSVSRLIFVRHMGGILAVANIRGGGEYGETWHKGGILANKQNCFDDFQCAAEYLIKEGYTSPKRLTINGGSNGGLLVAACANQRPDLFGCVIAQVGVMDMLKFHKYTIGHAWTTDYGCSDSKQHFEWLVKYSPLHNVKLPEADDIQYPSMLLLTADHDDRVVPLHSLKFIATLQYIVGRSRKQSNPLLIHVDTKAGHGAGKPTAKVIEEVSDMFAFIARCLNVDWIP
Test: Biochemical human prolyl endopeptidase (PREP) assay with fluorescently labelled substrate
Details: substrate Z-Gly-Pro-AMC 50 μM, 32° C., 60 min; some as mean values from multiple independent determinations
measure: IC50 (nM)

O=C([C@@H]1CCc2nn(Cc3ccc(F)c(Cl)c3)c(=O)n21)N1CCCC1 [Example 51] : 0.89
O=C([C@@H]1CCC(O)c2nn(Cc3ncc(F)cc3F)c(=O)n21)N1CC[C@H](F)C1 (mixture of isomers) [Example 585] : 0.43

A = O=C(C1CC(C(F)(F)F)Cc2nn(Cc3ccc(Cl)nc3)c(=O)n21)N1CCC(F)(F)C1 (single isomer, unassigned) [Example 232]
B = O=C([C@@H]1CCCc2nn(Cc3ccc(F)c(F)c3)c(=O)n21)N1CC[C@H](F)C1 [Example 466]
C = Cn1ncc2cc(Cn3nc4n(c3=O)C(C(=O)N3CCCC3)CCC4)ccc21 (racemic) [Example 64]
D = O=C(C1CCCc2nn(Cc3ccc(Cl)c(C(F)(F)F)c3)c(=O)n21)N1CCC(F)(F)C1 (racemic) [Example 43]
E = O=C([C@@H]1CCCc2nn(Cc3ccc(C(F)(F)F)c(Cl)c3)c(=O)n21)N1CC(F)C1 [Example 459]
I would appreciate it if you could sort these 5 molecules by IC50, starting from the smallest number. Answer by naming the labels in the order asked.
E, B, C, D, A
(E: 0.2 nM, B: 0.41 nM, C: 0.94 nM, D: 1.9 nM, A: 400 nM)
